Source listed as PubChem BioAssay (NCI).

Can you tell me TGI for the items I'm about to list?
# Test system: MCF7 breast
# protocol details: NCI tumour cell line growth inhibition, 48 h
Please state the figure in µM; there is no need to write the unit.

# input Quick check: TGI of CC1OC(c2ccc3c(c2O)C(=O)C2=C(C3=O)C3(O)C(=O)CC(C)(O)CC3(O)C=C2)CC(O)C1O (stereo not given) ?
# output 9

# input For the molecule shown here, CCN(CC)c1ccc(/C=C/C2=[N+](C)c3ccccc3C2(C)C)c(C)c1 , give the reported TGI.
# output 1.62

# input Look at this molecule and give its reported TGI. CC(C)C1=C(O)C2=C(C(=O)C1=O)C1(C)CCCC(C)(C)C1C(O)C2OC=O (stereo not given)
# output 27.7

# input Could you tell me which TGI is on file for O=C1CS(=O)(=O)C(c2cccc(Oc3ccccc3)c2)N1c1cc(Cl)ccc1Cl (stereo not given) ?
# output 35.4

* * *

# Test system: HOP-62 NSCLC
# protocol details: NCI tumour cell line growth inhibition, 48 h
Give TGI for every item shown.

# input // map C=C1C(=O)C23C(O)C1CC[C@H]2C12CCCC(C)(COC(C)=O)[C@H]1[C@H](O)[C@]3(O)OC2 (stereo not given in full) to recorded TGI (system: HOP-62 NSCLC)
# output 8.56 µM

# input What value of TGI on HOP-62 NSCLC does Cc1cccc(N=Nc2ccc(N=Nc3c(O)ccc4ccccc34)cc2C)c1 have?
# output 89.6 µM

# input For HOP-62 NSCLC, provide TGI of Cc1nc(-c2cccnc2)sc1C(=O)/C=C/c1cccc([N+](=O)[O-])c1 please.
# output > 100 µM

# input Value wanted: TGI (HOP-62 NSCLC) of entry N#Cc1c(-c2ccco2)cc(-c2ccccc2)[nH]c1=O
# output > 100 µM

# input Item Cc1cccc(/C(Br)=C2/OC(=O)c3ccccc32)c1 with HOP-62 NSCLC - TGI?
# output > 100 µM

# input Param readout = TGI; param system = HOP-62 NSCLC; param query = Clc1ccc2c(c1)N(c1ncnc3ccc(-c4cnc5[nH]ncc5c4)cc13)CC2 ; response: value
# output > 100 µM

# input Any idea what TGI came out for COc1ccc(C2=C(N3CCc4ccccc43)C(=O)NC2=O)cc1 on HOP-62 NSCLC?
# output > 25 µM

# input Form field: TGI recorded for CON(C)C(=O)C1CCCO1 (stereo not given) with HOP-62 NSCLC (enter value)
# output > 100 µM

# input Request: TGI, test system HOP-62 NSCLC, entry COc1cc2[nH]c(-c3ccccc3)cc(=O)c2c(OC)c1OC
# output > 100 µM

# input Write down the reported TGI of CC1(C)OC2COC3([C@@H]4OC(C)(C)O[C@@H]4CO)OC(C)(C)OC3C2O1 (stereo not given in full) , test system: HOP-62 NSCLC.
# output > 100 µM

# input Please tell me: TGI of Cc1cccc(C)c1N1C(=O)C(=O)C(c2nc3ccccc3s2)C(=Nc2cccc3c(=O)[nH][nH]c(=O)c23)C1=O (stereo not given) , system HOP-62 NSCLC?
# output > 100 µM

# input // lookup TGI | system=HOP-62 NSCLC | key= O=C1C=CC(=O)C(CNc2ccc(C(=O)OCc3ccccc3)cc2)=C1
# output 33 µM

# input Lab note: need TGI with HOP-62 NSCLC for entry CN(C)c1cccc2c1C(=O)C=CC21c2ccc(N(C)C)c3c(N(C)C)ccc(c23)C(c2ccccc2)C1c1ccccc1 (stereo not given) , please look it up.
# output 39.2 µM

# input Form field: TGI recorded for CC(C)Oc1ccc(C(=O)Cn2ccnc2)cc1-n1c(CN2CCN(C(=O)COc3ccc(Cl)cc3)CC2)nc2ccccc2c1=O with HOP-62 NSCLC (enter value)
# output 44.9 µM

# input Lookup: TGI / HOP-62 NSCLC / O=C(O)CN(CC(=O)O)C(C(=O)O)c1ccccc1 (stereo not given)
# output > 100 µM

# input Request - read-out TGI | tested on HOP-62 NSCLC | compound COc1ccc(C2c3cc4c(cc3OC(NCCO)C2C)OCO4)cc1 (stereo not given)
# output > 100 µM

# input Checklist item: TGI tested on HOP-62 NSCLC, entry CCOC(=O)c1sc2ncnc(N)c2c1C , value?
# output > 100 µM

# input Which measured TGI belongs to CCN1C(=O)C(=C/C=C/c2ccc(N(CC)CC)cc2)C(=O)N(CC)C1=S , tested on HOP-62 NSCLC?
# output 50.7 µM

# input Report TGI for COc1cc2nc(-c3ccc(C(F)(F)F)cc3)cc(OCCCN3CCCC3)c2cc1OC tested on HOP-62 NSCLC.
# output 18.5 µM

# input Short answer please: TGI, HOP-62 NSCLC, entry C=CCN1C(=O)/C(=C/c2ccc(C)cc2)N=C1SC1OC(COC(C)=O)C(OC(C)=O)C(OC(C)=O)C1OC(C)=O (stereo not given)
# output > 100 µM
